Target Entity: Histone-lysine N-methyltransferase EHMT2 (Homo sapiens)
Protocol Description: qHTS Assay for Inhibitors of Histone Lysine Methyltransferase G9a; note: nearly all actives have a fitted effect of over 75% in size
Assay Setup: G9a H3K9 monomethylation, AlphaScreen, 2 h; series mostly up to 59 µM
Out of some 350,000 compounds screened, about 31,000 (8.9%) were called active. Inconclusive results (about 15%) are left out. Calls come from the whole dose curve; as a rule, active = well fitted inhibition curve with a large enough effect; inconclusive = small, poorly fitted or top-dose-only effect; inactive = no such curve, though single readings can be large or run the other way. The entries come from a sample that favours actives as a whole.
Respond only with the outcome that fits, drawn from class 1 for active, class 0 for inactive

As a guide, the following entries are already answered.
Prompt: Outcome logged for `Cc1ccccc1CN1CCC(C(=O)Nc2ccc(Oc3cccnc3)cc2)CC1` in this assay:
Response: class 0

Prompt: Outcome logged for `COc1ccc(NC(=O)Cn2c(=O)n(CCC(C)C)c(=O)c3cccnc32)cc1Cl` in this assay:
Response: class 0

Prompt: Outcome logged for CCOCCCNC(=O)C(NC(=O)Cc1c[nH]c2ccccc12)c1ccc(OC)cc1 (stereo not given) in this assay:
Response: class 0

Prompt: Outcome logged for CCOCCCNC(=O)C(NC(=O)CNC(=O)c1ccccc1)c1ccc(OC)cc1 (stereo not given) in this assay:
Response: class 1

Prompt: Outcome logged for `Cc1ccc(OCC(=O)OCc2cc(=O)n3nc(C4CC4)sc3n2)cc1` in this assay:
Response: class 0

Prompt: Outcome logged for `CCC(=O)c1ccc(OCC(=O)OCC(=O)NC2CCCCCC2)cc1` in this assay:
Response: class 0

Prompt: Outcome logged for `COc1cc(NC(=O)Cn2nc(-c3ccc(C)c(C)c3)ccc2=O)cc(OC)c1` in this assay:
Response: class 0

Prompt: Outcome logged for `COc1ccc(NC(=O)CN(C)C(=O)c2ccc(COc3ccccc3)o2)cc1` in this assay:
Response: class 0

More entries:
Prompt: Outcome logged for `CCC(=O)N1CCc2cc(CNC(=O)Nc3ccccc3Cl)ccc21` in this assay:
Response: class 0

Prompt: Outcome logged for CCOCCCNC(=O)C(NC(=O)CNC(=O)c1ccccc1)c1ccc(C)cc1 (stereo not given) in this assay:
Response: class 0

###

Target Entity: Histone-lysine N-methyltransferase EHMT2 (Homo sapiens)
Protocol Description: qHTS Assay for Inhibitors of Histone Lysine Methyltransferase G9a; note: nearly all actives have a fitted effect of over 75% in size; note: potency is the fitted concentration of half-maximal effect
Assay Setup: G9a H3K9 monomethylation, AlphaScreen, 2 h; series mostly up to 59 µM
Among all 350,000 compounds or so, about 31,000 (8.9%) were called active. Roughly 15% stayed inconclusive and do not appear here. The list comes from a sample in which actives are over-represented; it also holds close analogues and randomly drawn compounds.
Measured Property: Potency

Some molecules with known Potency results, for comparison:
Prompt: Note down Potency recorded for `N#C/C(=C\C1=C(N2CCOCC2)C(=C\c2ccccc2)/CC1)C(=O)Nc1ccccc1F`
Response: 7.08 µM (active)

Prompt: Note down Potency recorded for Cc1ccc([N+](=O)[O-])c(OCCCNCC(C)O)c1 (stereo not given)
Response: 12.6 µM (active)

Prompt: Note down Potency recorded for `COc1ccc(C(=O)Nc2cccc(C(=O)OCc3cc(=O)n4c5c(sc4n3)CCCC5)c2)cc1`
Response: inactive

Prompt: Note down Potency recorded for `COc1ccc(-c2nc3sc(CCNC(=O)C(C)(C)C)c(C)n3n2)cc1`
Response: inactive

Prompt: Note down Potency recorded for `CC(C)c1nnc(NC(=O)COC(=O)/C=C/c2ccc([N+](=O)[O-])cc2)s1`
Response: inactive

More entries:
Prompt: Note down Potency recorded for `N#C/C(=C\c1ccccc1C(F)(F)F)C(=O)Nc1ccccc1F`
Response: inactive

Prompt: Note down Potency recorded for Cc1ccc(NC(=O)C(C)OC(=O)Cc2c[nH]c3ccccc23)cc1S(=O)(=O)N1CCOCC1 (stereo not given)
Response: 35.5 µM (active)

Prompt: Note down Potency recorded for `CCOC(=O)c1sc(NC(=O)CSc2nc(O)c(Cc3ccccc3)c(=O)[nH]2)nc1C`
Response: 50.1 µM (active)

Prompt: Note down Potency recorded for `Cn1nnnc1SCCCNCc1ccc(Cl)cc1`
Response: inactive

Prompt: Note down Potency recorded for `COCCNc1cc(NCCOC)c([N+](=O)[O-])cc1[N+](=O)[O-]`
Response: inactive
